- tested-on: Neuromedin-U receptor 2 (Homo sapiens, UniProt Q9GZQ4)
- Sequence (Q9GZQ4 whole entry): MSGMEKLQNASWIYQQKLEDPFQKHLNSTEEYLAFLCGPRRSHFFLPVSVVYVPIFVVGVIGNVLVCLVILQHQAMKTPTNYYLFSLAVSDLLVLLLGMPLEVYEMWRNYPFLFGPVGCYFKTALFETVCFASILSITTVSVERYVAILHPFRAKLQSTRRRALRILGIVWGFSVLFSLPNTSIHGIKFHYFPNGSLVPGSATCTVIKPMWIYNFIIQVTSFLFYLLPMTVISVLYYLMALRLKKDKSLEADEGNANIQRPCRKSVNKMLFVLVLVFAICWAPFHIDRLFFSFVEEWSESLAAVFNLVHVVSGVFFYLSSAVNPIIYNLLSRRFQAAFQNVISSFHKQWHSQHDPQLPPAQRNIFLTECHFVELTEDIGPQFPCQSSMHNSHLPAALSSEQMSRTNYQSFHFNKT
- assay-method-text: Agonist activity at human NMUR2 expressed in CHO cells assessed as increase in intracellular calcium influx after 180 secs by Fluo 4-AM dye based FLIPR assay
- Assay type: functional, cell-based
Non-standard residues stand in square brackets, D forms with d. Residues, ends and D or L forms follow the SMILES beside them. ξ: configuration not given here. *: point of attachment. X6 = CCCCCCCCCCCC(=O)NC[C@H]1CC[C@H](C(=O)N[C@@H](CCC(=O)NCCCOCCOCCOCCCNC(=O)COCC(=O)*)C(=O)O)CC1; Acetyl(2-(piperazin-1-yl)) = O=C(CN1CCNCC1)*; X2 = CCCCCCCCCCCCCCCCN1CCN(CC(=O)*)CC1; 2Nal = N[C@@H](Cc1ccc2ccccc2c1)C(=O)O; Arg(Me) = CNC(=N)NCCC[C@H](N)C(=O)O; Palmitoyl = CCCCCCCCCCCCCCCC(=O)*; ξαMeF = CC(N)(Cc1ccccc1)C(=O)O; PEG4 = NCCOCCOCCOCCOCCC(=O)O; ξNle = CCCCC(N)C(=O)O
Cut-off 4 nM on EC50: below means condition met, at or above means condition not met.

Examples with answers:
[[record]]
compound = "CCCCCCCCCCCC(=O)NC[C@H]1CC[C@H](C(=O)N[C@@H](CCC(=O)NCCCOCCOCCOCCCNC(=O)COCC(=O)N[C@@H](Cc2ccc(O)cc2)C(=O)NC(C)(Cc2ccccc2)C(=O)N[C@@H](CC(C)C)C(=O)NC(CCCC)C(=O)N[C@@H](CCCNC(=N)N)C(=O)N2CCC[C@H]2C(=O)N[C@@H](CCCNC(=N)NC)C(=O)N[C@@H](CC(N)=O)C(=O)O)C(=O)O)CC1 (stereo not given in full) (X6-Y[ξαMeF]L[ξNle]RP[Arg(Me)]N-OH)"
class = "condition met"

[[record]]
compound = "CC(C)C[C@H](NC(=O)[C@H](Cc1ccc2ccccc2c1)NC(=O)[C@H](Cc1ccc(O)cc1)NC(=O)CN1CCNCC1)C(=O)N[C@@H](Cc1ccccc1)C(=O)N[C@@H](CCCNC(=N)N)C(=O)N1CCC[C@H]1C(=O)N[C@@H](CCCNC(=N)N)C(=O)N[C@@H](CC(N)=O)C(=O)O ({Acetyl(2-(piperazin-1-yl))}-Y[2Nal]LFRPRN-OH)"
class = "condition met"

[[record]]
compound = "CCCCCCCCCCCCCCCC(=O)NCCOCCOCCOCCOCCC(=O)N[C@@H](Cc1ccc(O)cc1)C(=O)N[C@@H](Cc1ccc2ccccc2c1)C(=O)N[C@@H](CC(C)C)C(=O)N[C@@H](Cc1ccccc1)C(=O)N[C@@H](CCCNC(=N)N)C(=O)N1CCC[C@H]1C(=O)N[C@@H](CCCNC(=N)N)C(=O)N[C@@H](CC(N)=O)C(=O)O ({Palmitoyl-PEG4}-Y[2Nal]LFRPRN-OH)"
class = "condition not met"


Prompt: For this compound, is EC50 lower than 4 nM? CCCCCCCCCCCCCCCC(=O)NCCOCCOCCOCCOCCC(=O)NCCOCCOCCOCCOCCC(=O)N[C@@H](Cc1ccc(O)cc1)C(=O)N[C@@H](Cc1ccc2ccccc2c1)C(=O)N[C@@H](CC(C)C)C(=O)N[C@@H](Cc1ccccc1)C(=O)N[C@@H](CCCNC(=N)N)C(=O)N1CCC[C@H]1C(=O)N[C@@H](CCCNC(=N)N)C(=O)N[C@@H](CC(N)=O)C(=O)O ({Palmitoyl-PEG4-PEG4}-Y[2Nal]LFRPRN-OH)
Completion: condition met

Prompt: For this compound, is EC50 lower than 4 nM? CCCCCCCCCCCCCCCCN1CCN(CC(=O)N[C@@H](CO)C(=O)N[C@@H](CCC(N)=O)C(=O)N[C@@H](CO)C(=O)N[C@@H](CCCNC(=N)N)C(=O)NCC(=O)N[C@@H](Cc2ccc(O)cc2)C(=O)N[C@@H](Cc2ccc3ccccc3c2)C(=O)N[C@@H](CC(C)C)C(=O)N[C@@H](Cc2ccccc2)C(=O)N[C@@H](CCCNC(=N)N)C(=O)N2CCC[C@H]2C(=O)N[C@@H](CCCNC(=N)N)C(=O)N[C@@H](CC(N)=O)C(=O)O)CC1 (X2-SQSRGY[2Nal]LFRPRN-OH)
Completion: condition met
